Target: Mitogen-activated protein kinase 14 (Homo sapiens, UniProt Q16539)
Sequence (Q16539 whole entry): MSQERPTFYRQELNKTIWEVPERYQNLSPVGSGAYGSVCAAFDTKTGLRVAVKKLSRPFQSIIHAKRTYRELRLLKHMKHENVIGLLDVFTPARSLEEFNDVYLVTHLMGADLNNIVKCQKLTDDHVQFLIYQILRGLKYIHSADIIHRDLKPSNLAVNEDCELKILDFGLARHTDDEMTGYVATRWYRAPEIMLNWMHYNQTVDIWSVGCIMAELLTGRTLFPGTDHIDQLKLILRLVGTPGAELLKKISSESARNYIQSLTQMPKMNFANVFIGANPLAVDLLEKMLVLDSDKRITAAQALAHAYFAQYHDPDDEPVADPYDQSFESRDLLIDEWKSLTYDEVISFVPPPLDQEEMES
Assay: SAPK2a(h) Kinase panel
pIC50: −log10 of the molar value.
result.type: pIC50

stdin: Give pIC50 for the following molecule: [2H]C([2H])([2H])C1(C([2H])([2H])[2H])Cn2nc(-c3ccc(F)cn3)c(-c3ccnc4[nH]ncc34)c2CO1
stdout: < 5.00

----------
Target: Casein kinase I isoform epsilon (Homo sapiens, UniProt P49674)
Sequence (P49674 whole entry, canonical isoform): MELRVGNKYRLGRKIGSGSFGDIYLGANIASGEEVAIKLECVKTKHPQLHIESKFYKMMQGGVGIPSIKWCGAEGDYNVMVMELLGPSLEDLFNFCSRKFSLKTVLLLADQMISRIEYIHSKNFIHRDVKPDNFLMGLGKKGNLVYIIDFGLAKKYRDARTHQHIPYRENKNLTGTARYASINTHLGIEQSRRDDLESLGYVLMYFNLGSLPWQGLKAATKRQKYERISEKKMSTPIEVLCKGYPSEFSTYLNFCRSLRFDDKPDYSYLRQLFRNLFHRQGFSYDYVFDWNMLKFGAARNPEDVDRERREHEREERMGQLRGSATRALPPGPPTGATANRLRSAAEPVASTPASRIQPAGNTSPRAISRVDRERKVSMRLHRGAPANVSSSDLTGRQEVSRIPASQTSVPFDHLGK
Assay: CK1epsilon(h) Kinase panel
result.type: pIC50
Would you please state pIC50, meaning minus log10 of the concentration in mol/L, as a bare number?

stdin: Report pIC50 from Casein kinase I isoform epsilon (Homo sapiens, UniProt P49674) testing of [2H]C([2H])([2H])C1(C([2H])([2H])[2H])Cn2nc(-c3ccc(F)cn3)c(-c3ccnc4[nH]ncc34)c2CO1
stdout: 6.86

----------
Test: GPCRScan assay: inhibition of GABA/PBR
Set-up: species or system Rattus norvegicus; radioligand conc. used [nm] 0.3 – 2.0, parental cells brain tissue
result.type: pKi
Would you please state pKi, meaning minus log10 of the concentration in mol/L, as a bare number?

stdin: Give pKi for the following molecule: [2H]C([2H])([2H])C1(C([2H])([2H])[2H])Cn2nc(-c3ccc(F)cn3)c(-c3ccnc4[nH]ncc34)c2CO1
stdout: 5.34
